test: Pharmacokinetics of rats, single intravenous and oral administration, plasma; type: in vivo; details: rat; male SD rats, intravenous 0.3 mg/kg, plasma
half-life values by entry
Express it in h; write the number only.

Q) So what does the record say about half-life for Cc1cc2c(c(C)c1NC(=O)CC1(C)CC1)CCN(c1ccc(F)cc1)C2 [Compound I] ?
A) 1.74

Q) Next compound up: Cc1cc2c(c(C)c1NC(=O)CC(C)(C)C)CCN(c1ccc(F)cc1F)C2 [Compound B]
A) 2

Q) Next compound up: Cc1cc2c(c(C)c1NC(=O)CC(C)(C)C)CCN(c1ccc(F)cc1)C2 [Compound A]
A) 0.99

* * *

experiment: Pharmacokinetics of rats, single intravenous and oral administration, plasma; format: in vivo; details: rat, po; male SD rats, gavage 5 mg/kg, plasma
AUC(0-inf) values by entry
Give the value; after it, write the unit.

Example molecules with recorded AUC(0-inf):
>>> result("Cc1cc2c(c(C)c1NC(=O)CC(C)(C)C)CCN(c1ccc(F)cc1F)C2")
"1080 ng·h/mL"
>>> result("Cc1cc2c(c(C)c1NC(=O)CC(C)(C)C)CCN(c1ccc(F)cc1)C2")
"1280 ng·h/mL"

Now look at this one.
Q) So what does the record say about AUC(0-inf) for Cc1cc2c(c(C)c1NC(=O)CC1(C)CC1)CCN(c1ccc(F)cc1)C2 ?
A) 855 ng·h/mL

* * *

AUC(0-t) values by entry
assay: Pharmacokinetics of rats, single intravenous and oral administration, plasma; assay type: in vivo; conditions: rat, po; male SD rats, gavage 5 mg/kg, plasma
Express it in ng·h/mL; write the number only.

Example molecules with recorded AUC(0-t):
>>> number("Cc1cc2c(c(C)c1NC(=O)CC1(C)CC1)CCN(c1ccc(F)cc1)C2")
822
>>> number("Cc1cc2c(c(C)c1NC(=O)CC(C)(C)C)CCN(c1ccc(F)cc1F)C2")
1070

Now look at this one.
Q) So what does the record say about AUC(0-t) for Cc1cc2c(c(C)c1NC(=O)CC(C)(C)C)CCN(c1ccc(F)cc1)C2 ?
A) 909

* * *

assay: Pharmacokinetics of mice, single intravenous and oral administration, plasma; type: in vivo; details: mouse; male ICR mice, intravenous 0.5 mg/kg, plasma
ASSAY_READOUT: Cmax (ng/mL)
Express it in ng/mL; write the number only.

>>> number("Cc1cc2c(c(C)c1NC(=O)CC1(C)CC1)CCN(c1ccc(F)cc1)C2")
299

Q) So what does the record say about Cmax for Cc1cc2c(c(C)c1NC(=O)CC(C)(C)C)CCN(c1ccc(F)cc1)C2 ?
A) 270

Q) Next molecule up: Cc1cc2c(c(C)c1NC(=O)CC1(C)CC1)CCN(c1ccc(C(F)(F)F)cc1)C2
A) 382

* * *

assay: Brain-blood ratio study in mice after single oral administration; assay type: in vivo; details: mouse, brain and plasma; male ICR mice, single oral 10 mg/kg, time point 4 h; read-out: Cerebral blood ratio
API: label(entry) gives satisfied if the entry's Kp at 4 h is strictly smaller than 3; on equality or larger values it gives not satisfied.

Q) Hello, is Kp at 4 h of the following compound strictly smaller than 3? Cc1cc2c(c(C)c1NC(=O)CC1(C)CC1)CCN(c1ccc(F)cc1F)C2
A) not satisfied

Q) Next compound up: Cc1cc2c(c(C)c1NC(=O)CC1(C)CC1)CCN(c1ccc(C(F)(F)F)cc1)C2
A) not satisfied

Q) Next compound up: Cc1cc2c(c(C)c1NC(=O)CC(C)(C)C)CCN(c1ccc(F)cc1)C2
A) satisfied

Q) Next compound up: Cc1cc2c(c(C)c1NC(=O)CC1(C)CC1)CCN(c1ccc(F)cc1)C2
A) not satisfied

Q) Next compound up: Cc1cc2c(c(C)c1NC(=O)CC(C)(C)C)CCN(c1ccc(F)cc1F)C2
A) satisfied

* * *

molecular target: KCNQ2 potassium channel (CHO-KCNQ2 cells) (Homo sapiens); test: Potassium ion channel opener activity test (FDSS/μCELL detection, FluxOR thallium flux)
EC50 values by entry
Express it in nM; write the number only.

>>> number("Cc1ccc(N2CCc3c(cc(C)c(NC(=O)CC(C)(C)C)c3C)C2)cc1")
330

Q) So what does the record say about EC50 for [2H]C1([2H])c2cc(C)c(NC(=O)CC3(C)CC3)c(C)c2CCN1c1ccc(C(F)(F)F)cc1 ?
A) 210

Q) Next compound up: Cc1cc2c(c(C)c1NC(=O)CC1(C)CC1)CCN(c1ccc(C#N)cc1)C2
A) 780

* * *

test: Pharmacokinetics of rats, single intravenous and oral administration, plasma; type: in vivo; details: rat, po; male SD rats, gavage 5 mg/kg, plasma
half-life values by entry

Example molecules with recorded half-life:
>>> result("Cc1cc2c(c(C)c1NC(=O)CC(C)(C)C)CCN(c1ccc(F)cc1F)C2")
"3.47 h"
>>> result("Cc1cc2c(c(C)c1NC(=O)CC(C)(C)C)CCN(c1ccc(F)cc1)C2")
"3.07 h"

Q) So what does the record say about half-life for Cc1cc2c(c(C)c1NC(=O)CC1(C)CC1)CCN(c1ccc(F)cc1)C2 ?
A) 6.25 h

* * *

target: KCNQ2 potassium channel (CHO-KCNQ2 cells) (Homo sapiens, UniProt O43526); construct: expressed in transfected cells; host or cells: CHO cells stably expressing KCNQ2, kept under G418 selection; test: Potassium ion channel opener activity test (FDSS/μCELL detection, FluxOR thallium flux); assay type: cell-based; settings: highest test concentration 100 μM
Sequence (O43526 whole entry): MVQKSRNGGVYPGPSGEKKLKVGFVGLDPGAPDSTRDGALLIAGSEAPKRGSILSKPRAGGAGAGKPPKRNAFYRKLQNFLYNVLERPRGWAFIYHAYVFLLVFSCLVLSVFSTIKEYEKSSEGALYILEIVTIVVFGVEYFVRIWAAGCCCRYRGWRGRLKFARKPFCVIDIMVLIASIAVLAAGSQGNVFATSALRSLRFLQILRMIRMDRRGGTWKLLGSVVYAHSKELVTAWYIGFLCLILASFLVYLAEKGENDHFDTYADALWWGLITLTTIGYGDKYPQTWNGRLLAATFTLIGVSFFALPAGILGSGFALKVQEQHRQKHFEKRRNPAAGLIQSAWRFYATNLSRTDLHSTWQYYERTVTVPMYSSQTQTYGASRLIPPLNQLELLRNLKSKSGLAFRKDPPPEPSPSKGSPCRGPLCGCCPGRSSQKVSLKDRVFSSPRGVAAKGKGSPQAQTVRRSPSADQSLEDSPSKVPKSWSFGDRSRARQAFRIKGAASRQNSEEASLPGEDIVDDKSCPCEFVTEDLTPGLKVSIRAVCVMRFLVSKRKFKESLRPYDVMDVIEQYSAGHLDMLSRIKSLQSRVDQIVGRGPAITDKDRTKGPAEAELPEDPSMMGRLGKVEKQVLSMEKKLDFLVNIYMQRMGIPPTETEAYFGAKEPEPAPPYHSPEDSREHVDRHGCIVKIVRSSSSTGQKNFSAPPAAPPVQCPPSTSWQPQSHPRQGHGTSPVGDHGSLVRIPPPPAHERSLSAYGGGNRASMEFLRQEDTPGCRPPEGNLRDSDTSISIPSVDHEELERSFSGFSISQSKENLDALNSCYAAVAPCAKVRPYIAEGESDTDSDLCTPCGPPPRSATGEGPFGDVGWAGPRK
ASSAY_READOUT: Maximum agonist rate (%)
Express it in %; write the number only.

Example compounds with recorded Maximum agonist rate (%):
>>> number("Cc1cc2c(c(C)c1NC(=O)CC1(C)CC1)CCN(c1ccc(I)cc1)C2")
28.94
>>> number("Cc1cc2c(c(C)c1NC(=O)CC1(C)CC1)CCN(c1ccc(Cl)cc1)C2")
33.2
>>> number("Cc1cc2c(c(C)c1NC(=O)CC1(C)CC1)CCN(c1ccc(C#N)cc1)C2")
29.43
>>> number("Cc1cc2c(c(C)c1NC(=O)CC1(C)CC1)CCN(c1ccc(C(F)(F)F)cc1)C2")
38.22
>>> number("Cc1cc2c(c(C)c1NC(=O)CC1(C)CC1)CCN(c1cccc(C(F)(F)F)c1)C2")
48.11
>>> number("Cc1cc2c(c(C)c1NC(=O)CC1CC(F)(F)C1)CCN(c1ccc(F)cc1)C2")
34.41
>>> number("Cc1cc2c(c(C)c1NC(=O)CC1(C)CC1)CCN(c1ccccc1)C2")
45.76
>>> number("C#Cc1ccc(N2CCc3c(cc(C)c(NC(=O)CC(C)(C)C)c3C)C2)cc1")
29.51
>>> number("Cc1cc2c(c(C)c1NC(=O)CC1(C)CC1)CCN(c1cccc(F)c1)C2")
48.65
>>> number("Cc1cc2c(c(C)c1NC(=O)CC(C)(C)C)CCN(c1ccc(F)cc1)C2")
37.97

Q) For the record Cc1cc2c(c(C)c1NC(=O)CC1(C)CC1)CCN(c1ccc(F)cc1)C2 , what value of Maximum agonist rate (%) is listed for KCNQ2 potassium channel (CHO-KCNQ2 cells) (Homo sapiens, UniProt O43526)?
A) 38.3

Q) Next compound up: Cc1ccc(N2CCc3c(cc(C)c(NC(=O)CC(C)(C)C)c3C)C2)cc1
A) 52.3
